Experiment: RAM signaling pathway blockade in yeast – S. cerevisiae, Pdr1DBD-CYC8 efflux-inhibited sensitized strain, primary screen (AID 1298);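 note: 0% = DMSO untreated cells without growth and 100% = 10 µM 1-NA-PP1 full growth; higher means more yeast growth rescued from 5-FOA killing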
Details: S. cerevisiae cbk1-as DSE1-URA3 strain, 5-FOA growth OD615, 2 d; at 50 µM; stronger effect = higher value
We begin with a simple list: items and their reported RAM network inhibition.
# number only, unit % dropped from output

Examples with answers:
Which RAM network inhibition is listed for CNC(=O)C1C2C=CC3(O2)C1C(=O)N(C1CC1)C3C(=O)NCc1ccc(OC)cc1 (configuration not stated) ?
1.1

Which RAM network inhibition is listed for CC1CCN(c2c(NCc3ccc(C(=O)N4c5ccccc5CC4C)cc3)c(=O)c2=O)CC1 (configuration not stated) ?
2.31

Which RAM network inhibition is listed for O=C1c2ccccc2C(Nc2cccnc2)N1Cc1ccccc1Cl (configuration not stated) ?
0.57

Which RAM network inhibition is listed for O=C(OCC1COc2ccccc2O1)c1c(F)cccc1F (configuration not stated) ?
7.73

Which RAM network inhibition is listed for `CCOC(=O)N1CCC(NC(=O)C2CCN(S(=O)(=O)c3cccc4cccnc34)CC2)CC1` ?
1.81

Which RAM network inhibition is listed for `CCOc1ccc(Cn2nnc(C(=O)Nc3cc(C)cc(C)c3)c2N)cc1` ?
8.35

Continuing:
Which RAM network inhibition is listed for `COc1ccc(CNC(=O)c2nnn(Cc3ccc(OC)cc3)c2N)cc1` ?
2.66

Which RAM network inhibition is listed for `COc1ccc(C(=O)n2nc(C)cc2C)cc1Br` ?
-0.42

Which RAM network inhibition is listed for `COc1ccc(OCCNS(=O)(=O)c2ccccc2)cc1` ?
1.42

Which RAM network inhibition is listed for `CCOc1ccc(OCCCCN(C)C)cc1` ?
6.13

Which RAM network inhibition is listed for Cc1nnc(NC(=O)CSc2nc3c(c(=O)n2C)SC(C)C3)s1 (configuration not stated) ?
9.95

Which RAM network inhibition is listed for `COc1ccccc1N1CCN(C(=O)c2cc(C3CC3)on2)CC1` ?
2.48

###

Test: MRP1 drug-resistance reversers in H69AR cells – cell-based, doxorubicin co-treatment, pilot screen (AID 601)
Settings: H69AR cells, CellTiter-Glo, 72 h; compound alone cytotoxicity; at 10 µM
Criterion: viability strictly under 90%. Met: y. Not met: n.

A selection of reference data follows.
hey, is viability for CC(c1ccco1)N(C(=O)COc1ccc(Cl)cc1Cl)c1ccccn1 (stereo unspecified) lower than 90% or not?
y

hey, is viability for `COc1ccc(N2CCN(CCNC(=O)CCS(=O)(=O)c3cccc4nsnc34)CC2)cc1` lower than 90% or not?
n

hey, is viability for COC(=O)C1=C(C)NC(C)=C(C(=O)OC)C1C1CC=CCC1 (stereo unspecified) lower than 90% or not?
n

hey, is viability for `O=C(CSc1nnnn1-c1ccccc1Cl)Nc1ccc2c(c1)OCCO2` lower than 90% or not?
y

Continuing:
hey, is viability for `Cc1c(C(=O)NC2CC2)oc2ccc(S(=O)(=O)N3CCCCCC3)cc12` lower than 90% or not?
y

hey, is viability for `Cc1onc(-c2ccccc2Cl)c1C(=O)N1CCc2ccccc21` lower than 90% or not?
y

hey, is viability for `CC(=O)Nc1cc(N2C(=O)CCC2=O)ccc1Cl` lower than 90% or not?
n

hey, is viability for `COC(=O)Cn1ncc2c(C)n(Cc3ccccc3)c(C)c2c1=O` lower than 90% or not?
n

###

Assay: doxorubicin toxicity protection in MRP-1 cells – H69AR cells, CellTiter-Glo, duplicate, MRP-1 activator project, pilot screen (AID 807);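 note: compound pretreatment 18-22 h then 72 h combined with doxorubicin; 0% = doxorubicin alone and 100% = vehicle without doxorubicin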
Conditions: H69AR viability with doxorubicin, CellTiter-Glo luminescence; at 10 µM; stronger effect = higher value
We begin with a simple list: items and their reported viability increase.
# number only, unit % dropped from output

Examples with answers:
Which viability increase is listed for CCN1C(=O)c2ccccc2S(=O)c2ccc(C(=O)NC3CC3)cc21 (configuration not stated) ?
-2.52

Which viability increase is listed for `O=C(COC(=O)c1cnccn1)c1ccc2c(c1)CCCC2` ?
-1.19

Which viability increase is listed for CCCCC(NS(=O)(=O)c1ccc(OC)cc1)C(=O)O (configuration not stated) ?
0.29

Which viability increase is listed for `CCN(CC)C(=O)COc1ccc2oc(C)c(C(=O)OC(C)C)c2c1` ?
-6.09

Which viability increase is listed for CCN(CC)CCCN1C(=O)C(O)=C(C(=O)c2ccco2)C1c1ccc(C)o1 (configuration not stated) ?
-4.15

Continuing:
Which viability increase is listed for `CCOc1ccc(N=CC2=C(O)CC(C)(C)CC2=O)cc1` ?
-0.38

###

Experiment: H69AR cell proliferation blockers – human, duplicate replicates, primary screen (AID 580);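 note: 100% = mean luminescence of untreated wells and 0% = no signal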
Conditions: H69AR lung tumor cells viability, ATP luminescence, 72 h; at 10 µM; stronger effect = lower value
Calls of active or inactive are those of the source.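 The calls were made as follows: active = viability at or under a set limit in both replicates, limit being median viability minus 3 SD (cut at about 48% in these data, passing the limit was not always enough); inconclusive = at or under the limit in just one replicate; inactive = at or above the limit in both replicates.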
property-name: viability

Examples with answers:
Which viability is listed for COc1ccc(C2CC(c3ccc(OC)cc3)n3nc(N)nc3N2)cc1 (stereo unspecified) ?
82.2% (inactive)

Which viability is listed for COc1cccc(C2=NOC(C(=O)N3CCc4ccccc4C3)C2)c1 (stereo unspecified) ?
92% (inactive)

Which viability is listed for `COc1ccccc1NC(=O)N(C1CCCC1)C1CCN(C(C)=O)CC1` ?
88.3% (inactive)

Which viability is listed for `CCOc1ccc(-c2nnc(N(CC)C(=O)C3CCC3)s2)cc1` ?
83.7% (inactive)

Continuing:
Which viability is listed for CCOc1ccc(N(CC(=O)NC2CCCC(C)C2C)S(=O)(=O)c2c(C)noc2C)cc1 (stereo unspecified) ?
73.1% (inactive)

Which viability is listed for COc1cccc(C2=NOC(C(=O)N3CCN(c4ccccc4)CC3)C2)c1OC (stereo unspecified) ?
86.5% (inactive)

Which viability is listed for `CC(=O)Nc1cccc(NC(=O)CSc2nn3c(=O)c(C)nnc3s2)c1` ?
90.8% (inactive)

Which viability is listed for CC1=C(C(=O)OC(C)C)C(c2ccccn2)n2ncnc2N1 (stereo unspecified) ?
98.1% (inactive)

Which viability is listed for CC1Cc2nc(SCC(N)=O)n(Cc3ccccc3)c(=O)c2S1 (stereo unspecified) ?
88.3% (inactive)

Which viability is listed for `CCOC(=O)N1CCN(c2cc(=O)n(-c3cccc(Br)c3)c(=O)[nH]2)CC1` ?
103% (inactive)

Which viability is listed for CCC(C)C(=O)Nc1nc2c(s1)C(=O)CC(C)(C)C2 (stereo unspecified) ?
89.5% (inactive)

###

Assay: viability of HCT116 without oncogenic beta-catenin – human colon tumor cells, pilot screen (AID 823);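 note: 0% = wells killed by 20 µM Hyamine and 100% = untreated DMSO cell wells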
Details: HCT116 beta-catenin knockout viability, CellTiter-Glo, 60 h; at 10 µM; stronger effect = lower value
Results filed as inconclusive are left out.
We begin with a simple list: items and their reported viability.
# number only, unit % dropped from output

Examples with answers:
Which viability is listed for `Cc1ccc(N2CCN(c3cc(C)nc4nc(C)nn34)CC2)c(C)c1` ?
83.3

Which viability is listed for `Cc1ccc(N(C)C(=O)N2CCN(S(=O)(=O)c3ccc(C)cc3)CC2)cc1` ?
93.7

Which viability is listed for `CSc1nnc(Cn2c(=O)sc3ccccc32)n1-c1ccccc1C` ?
97.2

Which viability is listed for `Cc1ccc(S(=O)(=O)NCCSc2nnnn2-c2ccc(C(N)=O)cc2)cc1` ?
92.1

Which viability is listed for `COc1ccccc1NC1=C(C)C(=O)CC1` ?
75.4

Which viability is listed for Cc1cc(C)cc(N(CC(=O)NC2CCC(C)CC2)S(=O)(=O)c2c(C)noc2C)c1 (stereo not drawn) ?
97.5

Continuing:
Which viability is listed for CC1CCCN(C(=O)c2cc3c(-c4ccc(Cl)cc4)nn(C)c3s2)C1 (stereo not drawn) ?
91.4

Which viability is listed for CCOC(=O)C1=C(C)Nc2nnnn2C1c1ccc(OC)c(Br)c1 (stereo not drawn) ?
92

Which viability is listed for `CCCCCCNS(=O)(=O)c1nc2nc(C)cc(C)n2n1` ?
104

Which viability is listed for CN(CP(=O)(O)C(O)c1ccccc1)S(C)(=O)=O (stereo not drawn) ?
94.2

Which viability is listed for `CCOC(=O)c1ccc(NS(=O)(=O)c2ccc3c(c2)oc(=O)n3C)cc1` ?
101

Which viability is listed for `CCOc1ccc(Cn2nnc(C(=O)Nc3ccc(OC)cc3OC)c2N)cc1` ?
83.3

###

Assay: S. cerevisiae growth inhibition in permissive medium (OD615), pilot counter-assay for S. cerevisiae lifespan shortening project, permissive growth control (AID 705)
Conditions: OD615, 24 h, at 10 µM, stronger effect = higher value
Would you mind labelling by growth inhibition? At or over -10% is met, under is not met.

A selection of reference data follows.
Identify whether the reported growth inhibition of the following compound is -10% or greater: `COc1ccc(CCNC(=O)c2cnn3ccccc23)c(OC)c1OC`
met

Identify whether the reported growth inhibition of the following compound is -10% or greater: `CC1(C)CC(=O)C(=CN2CCN(C(=O)c3ccco3)CC2)C(=O)C1`
not met

Identify whether the reported growth inhibition of the following compound is -10% or greater: `O=C(NCCC1=CCCCC1)C1CCN(S(=O)(=O)c2cccc3cccnc23)CC1`
met

Identify whether the reported growth inhibition of the following compound is -10% or greater: `COc1ccc(NC(=O)CSc2nc3c(c(=O)n2-c2ccc(F)cc2)SCC3)cc1`
met

Continuing:
Identify whether the reported growth inhibition of the following compound is -10% or greater: OCCCc1nc2n(n1)C(c1ccccc1)C=C(c1ccccc1)N2 (stereo unspecified)
met

Identify whether the reported growth inhibition of the following compound is -10% or greater: Cc1ccc(NC(=O)Cn2cc3c(n2)CCC(C)C3)cc1 (stereo unspecified)
met

Identify whether the reported growth inhibition of the following compound is -10% or greater: `CN(CC(=O)N1CCc2ccccc2C1)S(=O)(=O)c1ccc2c(c1)c(=O)n(C)c(=O)n2C`
not met

Identify whether the reported growth inhibition of the following compound is -10% or greater: `COc1ccc(OC)c(NC(=O)c2nnn(Cc3ccc(Br)cc3F)c2N)c1`
met

Identify whether the reported growth inhibition of the following compound is -10% or greater: CC1(C(=O)NCc2cccnc2)CCC(=O)N1CCc1ccccc1 (stereo unspecified)
met

Identify whether the reported growth inhibition of the following compound is -10% or greater: `Cc1nc(CCNC(=O)COc2ccccc2)cs1`
not met

Identify whether the reported growth inhibition of the following compound is -10% or greater: O=C(NCc1cccs1)C(Cc1ccccc1)n1cccc1 (stereo unspecified)
met

Identify whether the reported growth inhibition of the following compound is -10% or greater: `CCn1c(CCC(=O)Nc2cc(F)ccc2C)nc2cc(S(=O)(=O)N(C)C)ccc21`
met

Identify whether the reported growth inhibition of the following compound is -10% or greater: `CCCSc1nnc2nc3c(nn12)c1ccccc1n3C`
met
